system: KM12 colon; test: NCI tumour cell line growth inhibition, 48 h
// log10 TGI lookup, one value per entry
Friendly reminder: values = log10 of TGI, unit µM.

The cases that follow already have their log10 TGI on record.
COMPOUND	log10 TGI
ClC1=C(Cl)C(Cl)=C(Cl)C1=Cc1ccc(Cl)cc1Cl	0.32
COc1ccc2c(c1)-c1c(c3ccccc3n1CCN1CCOCC1)CC2	1.43
COc1ccc(CC(C#N)c2cc(OC)c(OC)c(OC)c2)cc1 (centres undefined)	0.69
O=C1c2c(O)cccc2C(C(=O)CCCC(=O)C2c3cccc(O)c3C(=O)c3c(O)cccc32)c2cccc(O)c21	-0.06

Look at this compound and give its reported log10 TGI. "O=S(=O)(Nc1nc(-c2cc(O)c(O)c(O)c2)cs1)c1ccc(Cl)cc1Cl"
1.49

Look at this compound and give its reported log10 TGI. COc1cc(C(=O)OC2CC(C)=CC[C@@]3(C)CC[C@](O)(C(C)C)C23)ccc1O (some centres undefined)
1.48

Look at this compound and give its reported log10 TGI. "COc1ccc(-c2cc3nccn3c(Nc3ncccc3C(N)=O)n2)cc1OC"
1.44

Look at this compound and give its reported log10 TGI. CCC[CH2][Sn]1([CH2]CCC)[O]CC([CH2][Sn]([c]2ccccc2)([c]2ccccc2)[c]2ccccc2)[O]1 (centres undefined)
1.40

Look at this compound and give its reported log10 TGI. "O=c1[nH]c2cc([N+](=O)[O-])c(N(CCO)CCO)c([N+](=O)[O-])c2[nH]1"
1.97

Look at this compound and give its reported log10 TGI. "CN(C)Cc1cc(C(=O)/C=C/c2c(F)cccc2Cl)cc(CN(C)C)c1O"
1.48

Look at this compound and give its reported log10 TGI. CC1(C)CC(O)CCCCCCOc2c(CN)cccc2NC(=O)c2nc(cnc2N)-c2ccc(cc2)S1(=O)=O (centres undefined)
0.41

Look at this compound and give its reported log10 TGI. "C=C1C(=O)O[C@H]2[C@H]1CC/C(COC(=O)NCc1cccc(OC)c1)=C\CC[C@@]1(C)O[C@@H]21"
1.40

----------
test system: UACC-62 melanoma; assay: NCI tumour cell line growth inhibition, 48 h
MEASURED_METRIC: TGI

> print(dat)
                          compound    result
1  COc1ccc(NCc2c(O)ccc3ccccc23)cc1  > 100 µM

Any idea what TGI came out for "O=c1cc(-c2ccc[nH]2)[nH]c2cc3c(cc12)OCO3" on UACC-62 melanoma?
> 100 µM

Any idea what TGI came out for "CC[C@@]1(O)C(=O)OCc2c1cc1n(c2=O)Cc2c-1nc1ccccc1c2/C=N\NC(=O)C(N)=O" on UACC-62 melanoma?
3.54 µM

Any idea what TGI came out for CC(Nc1cc(=O)n(C)c(=O)[nH]1)c1ccccc1 (stereo unspecified) on UACC-62 melanoma?
> 100 µM

Any idea what TGI came out for CCC[CH2][Sn]1([CH2]CCC)[O]CC([CH2][Sn]([c]2ccccc2)([c]2ccccc2)[c]2ccccc2)[O]1 (stereo unspecified) on UACC-62 melanoma?
22.6 µM

Any idea what TGI came out for COc1ccc2nc(C3=CN(C4OC(CO)C(O)C(O)C4O)C4C=CC=CC34)sc2c1 (stereo unspecified) on UACC-62 melanoma?
67.6 µM

Any idea what TGI came out for "O=C(O)C1=C(Cl)c2ccccc2S1(=O)=O" on UACC-62 melanoma?
> 100 µM

Any idea what TGI came out for CCC(c1nc2ccccc2c(=O)n1NC(=O)C(C)(C)C)C1(O)CCCCC1 (stereo unspecified) on UACC-62 melanoma?
> 100 µM

Measured values drawn from PubChem BioAssay (NCI) for this set.
